# Tested on: LOX IMVI
# Assay protocol: NCI tumour cell line growth inhibition, 48 h
Active and inactive are the calls of the source. Rule as the data show it: active = GI50 up to about 1.1 µM and inactive = higher.
Recorded metric: GI50

Known results for compounds:
>  <Compound>
c1ccc2c3nc(C4CCCC4)nc-3c(NC3CCCC3)[nH]c2c1

>  <Result>
15.8 µM (inactive)

$$$$
>  <Compound>
NCCCC[C@H](N)C(=O)Nc1ccc(-c2nc3ccccc3s2)cc1

>  <Result>
24.8 µM (inactive)

$$$$
>  <Compound>
O=C1c2ccccc2C(=O)C1C(c1ccc([N+](=O)[O-])cc1)C1C(=O)c2ccccc2C1=O

>  <Result>
18 µM (inactive)

$$$$
>  <Compound>
COC(C)(C)/C=C/c1[nH]c2ccccc2c1CC(=O)NCCc1cn(C(c2ccccc2)(c2ccccc2)c2ccccc2)cn1

>  <Result>
4.82 µM (inactive)

$$$$
>  <Compound>
N=C(N)NS(=O)(=O)c1ccc(NC(=O)c2ccc3nc4ccccc4c(O)c3c2)cc1

>  <Result>
49.7 µM (inactive)

$$$$

Please supply GI50 for each of the following items, keeping them in order.
1. CC1=CCC[C@H]2[C@](C)(CC3=CC(=O)C4SCCSC4C3=O)[C@@H](C)CC[C@]12C (stereo not given in full)
2. N=C1N=C(N)c2cc3c(cc21)SCCSCCCSCCS3
3. Cc1ccc2c(c1)C(=O)C(C1OC(=O)c3ccccc31)C2 (stereo not given)
4. Cc1nn2c(nc1=O)sc1ccc3ccccc3c12
5. Cc1c2c(n(CCc3ccccc3)c1C)NN=C(C#N)S2(=O)=O

Reply |
1. 11.2 µM (inactive)
2. 4.38 µM (inactive)
3. 39.9 µM (inactive)
4. > 100 µM (inactive)
5. > 100 µM (inactive)

---

# System: UACC-257
# Assay protocol: NCI tumour cell line growth inhibition, 48 h
Activity calls are given as the source filed them. Cut-off read from the data, not from the text of the source: active = GI50 up to about 1.1 µM and inactive = higher.
Just give me one of these, please: true = active, false = inactive

>  <Compound>
COc1ccccc1C12OC(=O)C1(C)Oc1ccccc1C2=O (stereo not drawn)

>  <Test target>
UACC-257

>  <Cat>
false

$$$$
>  <Compound>
COc1ccc(OC(=O)N2C/C(=C\c3ccccc3)C(=O)/C(=C/c3ccccc3)C2)cc1

>  <Test target>
UACC-257

>  <Cat>
false

$$$$
>  <Compound>
CC(C)N(O)C(=N)c1ccccc1

>  <Test target>
UACC-257

>  <Cat>
false

$$$$
>  <Compound>
CC(C)C1C(=O)N2CCCC2C2(O)OC(NC(=O)C3C=C4c5cccc6[nH]cc(c56)CC4N(C)C3)(C(C)C)C(=O)N12 (stereo not drawn)

>  <Test target>
UACC-257

>  <Cat>
false

$$$$
>  <Compound>
C=CC(OC(C)=O)c1ccc(OC(C)=O)cc1 (stereo not drawn)

>  <Test target>
UACC-257

>  <Cat>
false

$$$$
>  <Compound>
C/C(=N\NC(=O)CC#N)C(CN1CCCCC1)C(c1ccccc1)c1c(O)c2ccccc2oc1=O (stereo not drawn)

>  <Test target>
UACC-257

>  <Cat>
false

$$$$
>  <Compound>
CC[C@]1(Cc2ccc(OC)c(OC)c2)[C@@H]2C[C@@H](C(=O)OC)ON2O[C@H](OC2CCCC2(c2ccccc2)c2ccccc2)[C@@H]1OC(C)=O (stereo partly drawn)

>  <Test target>
UACC-257

>  <Cat>
false

$$$$
>  <Compound>
CCN1C(=O)C(=C/C=C/c2ccc(OC)cc2)C(=O)N(CC)C1=S

>  <Test target>
UACC-257

>  <Cat>
false

$$$$

Ask | How did this test come out for "CN(C)CCNc1ccc(NCC[N+](C)(C)Cc2ccc([N+](=O)[O-])cc2)c2c1C(=O)c1ccccc1C2=O" ?
Reply | false

---

# Tested on: SNB-75
# Assay protocol: NCI tumour cell line growth inhibition, 48 h
The source made the active and inactive calls. Cut-off read from the data, not from the text of the source: active = GI50 up to about 1.1 µM and inactive = higher.
Recorded metric: GI50

Please supply GI50 for each of the following items, keeping them in order.
1. CN(C)CCCn1c2ccccc2c2cnccc21
2. O=C(NCCc1ccccc1)c1c(O)nc2ccccc2c1O

Reply |
1. 66.1 µM (inactive)
2. > 100 µM (inactive)

Please supply GI50 for each of the following items, keeping them in order.
1. COc1cc([C@@H]2c3cc4c(cc3[C@@H](NC(=O)c3ccc([N+](=O)[O-])cc3)C3COC(=O)[C@@H]32)OCO4)cc(OC)c1O (some centres undefined)
2. Clc1ccc(-c2nnc(-c3c(Cl)c(Cl)c(Cl)c(Cl)c3-c3nc4ccccc4[nH]3)o2)cc1
3. C[N+](C)(C)CC(=O)N/N=C/c1ccncc1
4. COc1ccc(CC(C)N)cc1 (centres undefined)
5. O=C(Nc1nnc(S)[nH]1)C(=O)C(c1cnc2ccc([N+](=O)[O-])cc2n1)[N+](=O)[O-] (centres undefined)
6. NC1=NC2(COC(c3ccccc3)(c3ccccc3)c3ccccc3)OC(COC(c3ccccc3)(c3ccccc3)c3ccccc3)C(O)C2O1 (centres undefined)
7. CC(C)Nc1[nH]c(C(=O)c2ccccc2)c(N)c1C(=S)Nc1ccccc1

Reply |
1. 0.809 µM (active)
2. 68.7 µM (inactive)
3. > 100 µM (inactive)
4. > 100 µM (inactive)
5. > 100 µM (inactive)
6. < 0.01 µM (active)
7. 69.3 µM (inactive)

---

# Test system: NCI-H226
# Assay protocol: NCI tumour cell line growth inhibition, 48 h
Calls of active or inactive are those of the source. Cut-off read from the data, not from the text of the source: active = GI50 up to about 1.1 µM and inactive = higher.
Assign GI50 to each entry below.

Known results for molecules:
>  <Molecule>
CC(=O)NC1C(OCC(=O)NC(C)C(=O)NC(CCC(=O)NCCCCCNc2ccc([N+](=O)[O-])c3[nH]c4ccccc4c(=O)c23)C(N)=O)C(O)C(CO)OC1(C)OCc1ccccc1 (centres undefined)

>  <Test target>
NCI-H226

>  <Result>
> 50 µM (inactive)

$$$$
>  <Molecule>
N#C/C(c1nc2ccccc2[nH]1)=c1\s/c(=C/c2ccc(Cl)cc2)c(=O)n1-c1ccccc1

>  <Test target>
NCI-H226

>  <Result>
> 100 µM (inactive)

$$$$
>  <Molecule>
O=C1Nc2cc([N+](=O)[O-])ccc2N/C1=C/C(=O)c1ccc(Cl)cc1

>  <Test target>
NCI-H226

>  <Result>
19.5 µM (inactive)

$$$$

Would you kindly look at the next entry?
Ask | What value of measured GI50 is listed for "CCCN1CCC(=O)N(CCC(F)(F)C(F)(F)C(F)(F)C(F)(F)C(F)(F)C(F)(F)F)C1=S" ?
Reply | > 100 µM (inactive)

---

# System: BT-549
# Assay protocol: NCI tumour cell line growth inhibition, 48 h
Calls of active or inactive are those of the source. No stated cut-off is given here; in the data, active = GI50 up to about 1.1 µM and inactive = higher.
Recorded metric: GI50

Please supply GI50 for each of the following items, keeping them in order.
1. O=C1CCCC1CN1CCCC1 (stereo not drawn)
2. COc1ccc(C2=Nn3c(nc4sc5c(c4c3=O)CCCC5)SC2)cc1
3. CCc1n[nH]c(=O)n1N1C(=O)C2CC=CCC2C1=O (stereo not drawn)
4. O=C1CSC2=NCC3(NN12)c1ccccc1-c1ccccc13
5. CC(OCc1ccccc1)C(NC(=O)C1CSSCC(NC(=O)C(Cc2ccccc2)NC(=O)OCc2ccccc2)C(=O)NC(Cc2ccccc2)C(=O)NC(Cc2cn(C=O)c3ccccc23)C(=O)NC(CCCCNC(=O)OCc2ccccc2)C(=O)NC(C(C)OCc2ccccc2)C(=O)N1)C(N)=O (stereo not drawn)
6. NC(=O)C1CCCN1C(=O)N(CCCl)N=O (stereo not drawn)
7. N=C1N=C(N)c2cc3c(cc21)SCCSCCCSCCS3

Reply |
["1.56 µM (inactive)", "> 100 µM (inactive)", "> 100 µM (inactive)", "> 10 µM (inactive)", "21.2 µM (inactive)", "> 100 µM (inactive)", "14.1 µM (inactive)"]

Please supply GI50 for each of the following items, keeping them in order.
1. Oc1ccc(Br)cc1/C=N/C1CCCCC1
2. CN(Cc1cnc2nc(N)nc(N)c2n1)c1ccc(C(=O)NC(CCS(=O)(=O)O)C(=O)O)cc1 (stereo not drawn)
3. CC1=C(/C=C/C(C)=C/C=C/C(C)=C/C(=O)OC2CC(n3cc(F)c(=O)[nH]c3=O)OC2CO)C(C)(C)CCC1 (stereo not drawn)
4. CC(C)=NN/C(=N\c1ccc(Cl)cc1)NS(=O)(=O)c1ccc(Oc2cccc(Cl)c2C#N)cc1
5. CC1(C)O[C@@H]2[C@@H]3OC(=O)C[C@@H]3[C@@H](COCc3ccccc3)[C@@H]2O1
6. C[Si](C)(C)C1=C([Si](C)(C)C)C(Cl)(Cl)C1=O

Reply |
35.3 µM (inactive)
> 100 µM (inactive)
1.58 µM (inactive)
> 100 µM (inactive)
> 100 µM (inactive)
3.63 µM (inactive)

---

# System: SF-295
# Assay protocol: NCI tumour cell line growth inhibition, 48 h
Calls of active or inactive are those of the source. Rule as the data show it: active = GI50 up to about 1.1 µM and inactive = higher.
Just give me one of these, please: true (1) for active, false (0) for inactive

The examples below pair each entry with its known result.
>  <Molecule>
CCN1C(=O)C(=C/C=C/c2ccc(OC)cc2)C(=O)N(CC)C1=S

>  <Test target>
SF-295

>  <Cat>
false (0)

$$$$
>  <Molecule>
CCOC(=O)c1cn(-c2ccc(Cl)cc2)c(=O)n2c1nc1ccccc12

>  <Test target>
SF-295

>  <Cat>
false (0)

$$$$
>  <Molecule>
N#Cc1c2ccccc2c(Cc2ccc3c(c2)OCCOCCOCCOCCOCCO3)c2ccccc12

>  <Test target>
SF-295

>  <Cat>
false (0)

$$$$
>  <Molecule>
CCCC(=O)OCC1OC(n2cc(F)c(=O)[nH]c2=O)CC1OC(=O)CCC (configuration not stated)

>  <Test target>
SF-295

>  <Cat>
true (1)

$$$$
>  <Molecule>
O=C1/C(=C/c2ccccc2Cl)COc2ccccc21

>  <Test target>
SF-295

>  <Cat>
false (0)

$$$$
>  <Molecule>
C[C@@]12CCC(=O)c3coc(c31)C(=O)c1cc3c(cc12)C(=O)C=CC3=O

>  <Test target>
SF-295

>  <Cat>
false (0)

$$$$

Ask | How did this test come out for "COc1cc(/C=C/C(=O)O)ccc1OS(=O)(=O)O" ?
Reply | false (0)

Ask | How did this test come out for "O=C(CSc1nnc(-c2ccc(/N=C\c3ccc(Cl)cc3)cc2)o1)Nc1ccccc1[N+](=O)[O-]" ?
Reply | false (0)

Ask | How did this test come out for "Cc1nc2ccccc2c(=O)[nH]1" ?
Reply | false (0)

Ask | How did this test come out for "CN(C)C(=S)N/N=C(\C(=N/NC(=S)N(C)C)c1ccccn1)c1ccccn1" ?
Reply | false (0)

Ask | How did this test come out for "Cc1c(C(=O)/C=C/c2ccc(Cl)cc2)[n+]([O-])c2ccccc2[n+]1[O-]" ?
Reply | false (0)

Ask | How did this test come out for "O=C1CSC2=NCC3(NN12)c1ccccc1-c1ccccc13" ?
Reply | false (0)

Ask | How did this test come out for "Cc1nn2c3c(nnc2c1C#N)C(=O)NN=C(N)S3" ?
Reply | false (0)

Ask | How did this test come out for "Cc1ccsc1C(=S)Nc1ccc(Cl)c(C(=O)OC(C(C)C)C(C)C)c1" ?
Reply | false (0)

Ask | How did this test come out for "CN(C)CCNc1ccc(NCC[N+](C)(C)Cc2ccc([N+](=O)[O-])cc2)c2c1C(=O)c1ccccc1C2=O" ?
Reply | false (0)
